Reference source for all entries: patent US20060183902A1

# system.under.test: α1d-AR (Homo sapiens, UniProt P25100)
# Construct: expressed in transfected cells; host or cells: COS-7
# Sequence (P25100 whole entry): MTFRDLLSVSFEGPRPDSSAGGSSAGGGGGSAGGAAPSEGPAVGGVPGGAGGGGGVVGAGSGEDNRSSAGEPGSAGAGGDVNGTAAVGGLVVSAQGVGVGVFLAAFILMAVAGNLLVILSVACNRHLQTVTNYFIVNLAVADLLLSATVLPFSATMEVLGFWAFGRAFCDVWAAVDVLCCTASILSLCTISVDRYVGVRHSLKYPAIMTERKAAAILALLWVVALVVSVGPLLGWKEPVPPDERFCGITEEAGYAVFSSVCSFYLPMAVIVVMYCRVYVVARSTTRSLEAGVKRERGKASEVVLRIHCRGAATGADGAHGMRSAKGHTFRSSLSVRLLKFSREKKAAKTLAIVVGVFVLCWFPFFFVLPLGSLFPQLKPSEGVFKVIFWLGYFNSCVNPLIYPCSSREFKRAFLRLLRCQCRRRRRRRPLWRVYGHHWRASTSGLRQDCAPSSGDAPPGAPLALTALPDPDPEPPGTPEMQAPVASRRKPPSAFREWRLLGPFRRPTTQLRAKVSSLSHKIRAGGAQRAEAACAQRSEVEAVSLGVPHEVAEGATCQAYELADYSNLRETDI
# experimental.protocol: α1-Adrenergic receptor radio-ligand (125I-HEAT) binding assay, α1d subtype
# applied.conditions: COS-7 cell membranes transfected with α1d-AR, 125I-HEAT 50 pM; read-out: Receptor Binding, Ki α1d-AR
Assignment: determine reported pKi for the given compounds.
One number for each entry, as −log10 of the molar value.

As a guide, the following entries are already answered.
compound | pKi
CC(C)Oc1ccccc1N1CCN(Cc2cccc(C(=O)N3CCc4ccc(NCc5c(F)cccc5F)cc43)c2)CC1 [Cpd 6] | 8.62
CC(C)Oc1ccccc1N1CCN(Cc2cccc(C(=O)N3CCc4ccc(NC(=O)c5ccc(F)cc5)cc43)c2)CC1 [Cpd 48] | 8.22
CC(C)Oc1ccccc1N1CCN(Cc2cccc(C(=O)N3CCc4ccc(NCc5ccccc5F)cc43)c2)CC1 [Cpd 44] | 8.38

Could you now consider this next compound?
Record request: pKi value, item CC(C)Oc1ccccc1N1CCN(Cc2cccc(C(=O)N3CCc4cc(NCc5ccc(C(F)(F)F)cc5)ccc43)c2)CC1 [Cpd 8]
7.82

* * *

Exercise: state measured pKi for each of the compounds provided.
# system.under.test: α1b-AR (Homo sapiens, UniProt P35368)
# Construct: expressed in transfected cells; host or cells: COS-7
# experimental.protocol: α1-Adrenergic receptor radio-ligand (125I-HEAT) binding assay, α1b subtype
# applied.conditions: COS-7 cell membranes transfected with α1b-AR, 125I-HEAT 50 pM; read-out: Receptor Binding, Ki α1b-AR
Numbers only, as −log10 of the molar value.

Consider the worked cases shown below.
structure.as.smiles | readout.type | obs.value
CC(C)Oc1ccccc1C1CCN(Cc2cccc(C(=O)N3CCc4ccc(NC(=O)Nc5c(F)cccc5F)cc43)c2)CC1 | pKi | 6.92
N#Cc1ccccc1N1CCN(Cc2cccc(C(=O)N3CCc4ccccc43)c2)CC1 | pKi | 6.48
CC(C)Oc1ccccc1N1CCN(Cc2cccc(C(=O)N3CCc4cc(NC(=O)Nc5ccccc5)ccc43)c2)CC1 | pKi | 5.86
COc1ccc(C(=O)Nc2ccc3c(c2)N(C(=O)c2cccc(CN4CCN(c5ccccc5OC(C)C)CC4)c2)CC3)cc1 | pKi | 6.35
CCOC(OCC)c1ccc(CNc2ccc3c(c2)N(C(=O)c2ccc(CN4CCC(c5ccccc5OC)CC4)cc2)CC3)cc1 | pKi | 6.04
O=C(c1ccc(CN2CCN(c3ccccc3OCC(F)(F)F)CC2)cc1)N1CCc2ccccc21 | pKi | 6.51
COc1ccccc1C1CCN(Cc2cccc(C(=O)N3CCc4ccc(NS(=O)(=O)c5c(F)cccc5F)cc43)c2)CC1 | pKi | 6.82
COc1ccccc1C1CCN(Cc2ccc(C(=O)N3CCc4cc(N)ccc43)cc2)CC1 | pKi | 6.18
CCOC(OCC)c1ccc(CNc2ccc3c(c2)CCN3C(=O)c2cccc(CN3CCN(c4ccccc4OC(C)C)CC3)c2)cc1 | pKi | 5.83
COc1ccccc1C1CCN(Cc2ccc(C(=O)N3CCc4ccc([N+](=O)[O-])cc43)cc2)CC1 | pKi | 6.70

Look up pKi for the entries below, preserving their order.
1. CC(C)Oc1ccccc1C1CCN(Cc2cccc(C(=O)N3CCc4ccccc43)c2)CC1
2. CC(C)Oc1ccccc1N1CCN(Cc2cccc(C(=O)N3CCc4ccc(NS(=O)(=O)c5c(F)cccc5F)cc43)c2)CC1
3. COc1ccccc1C1CCN(Cc2ccc(C(=O)N3CCc4ccc(NC(=O)c5c(OC)cccc5OC)cc43)cc2)CC1
4. CC(=O)Nc1ccc(S(=O)(=O)Nc2ccc3c(c2)N(C(=O)c2cccc(CN4CCN(c5ccccc5OC(C)C)CC4)c2)CC3)cc1
5. CC(C)Oc1ccccc1N1CCN(Cc2cccc(C(=O)N3CCc4ccc(NCc5ccc6c(c5)OCO6)cc43)c2)CC1
6. Cc1ccc(S(=O)(=O)Nc2ccc3c(c2)N(C(=O)c2cccc(CN4CCN(c5ccccc5OC(C)C)CC4)c2)CC3)cc1

1: 6.97; 2: 6.05; 3: 6.23; 4: 7.04; 5: 6.68; 6: 6.62

For each entry beneath this line, provide reported pKi.
1. COc1ccccc1C1CCN(Cc2ccc(C(=O)N3CCc4cc([N+](=O)[O-])ccc43)cc2)CC1
2. CC(C)Oc1ccccc1N1CCN(Cc2cccc(C(=O)N3CCc4cc(NCc5c(F)cccc5F)ccc43)c2)CC1
3. CC(C)COc1ccccc1N1CCN(Cc2cccc(C(=O)N3CCc4ccccc43)c2)CC1
4. CC(C)Oc1ccccc1N1CCN(Cc2cccc(C(=O)N3CCc4cc(NCc5ccc(C(F)(F)F)cc5)ccc43)c2)CC1
5. CC(C)Oc1ccccc1N1CCN(Cc2cccc(C(=O)N3CCc4ccc(NC(N)=O)cc43)c2)CC1
6. CC(C)Oc1ccccc1N1CCN(Cc2cccc(C(=O)N3CCc4ccc(NC(=O)c5ccc(F)cc5)cc43)c2)CC1

1. 6.34
2. 5.69
3. 6.04
4. 6.41
5. 6.45
6. 6.05

* * *

# system.under.test: α1b-AR (Homo sapiens, UniProt P35368)
# Construct: expressed in transfected cells; host or cells: COS-7
# experimental.protocol: α1-Adrenergic receptor radio-ligand (125I-HEAT) binding assay, α1b subtype
# applied.conditions: Receptor Binding, Ki α1b-AR, COS-7 cell membranes transfected with α1b-AR, 125I-HEAT 50 pM
readout.type: Ki (µM)
Give bare numbers, in µM.

compound | Ki [µM]
Cc1ccc(OC(=O)Nc2ccc3c(c2)N(C(=O)c2cccc(CN4CCN(c5ccccc5OC(C)C)CC4)c2)CC3)cc1 [Cpd 12] | 0.495

// lookup Ki for Cc1ccc(OC(=O)Nc2ccc3c(c2)CCN3C(=O)c2cccc(CN3CCN(c4ccccc4OC(C)C)CC3)c2)cc1 [Cpd 4]
0.096

* * *

I'd be grateful if you could share measured Ki for these entries.
# system.under.test: α1d-AR (Homo sapiens)
# Construct: expressed in transfected cells; host or cells: COS-7
# experimental.protocol: α1-Adrenergic receptor radio-ligand (125I-HEAT) binding assay, α1d subtype
# applied.conditions: COS-7 cell membranes transfected with α1d-AR, 125I-HEAT 50 pM; read-out: Receptor Binding, Ki α1d-AR
Answers are plain numbers, in nM.

structure.as.smiles | readout.type | obs.value
CCOC(OCC)c1ccc(CNc2ccc3c(c2)N(C(=O)c2ccc(CN4CCC(c5ccccc5OC)CC4)cc2)CC3)cc1 | Ki | 98

Each compound below has a reported value. Please supply its Ki.
1. COc1ccccc1C1CCN(Cc2cccc(C(=O)N3CCc4ccc(NCc5ccccc5F)cc43)c2)CC1
2. CC(C)Oc1ccccc1N1CCN(Cc2cccc(C(=O)N3CCc4cc(Br)ccc43)c2)CC1
3. CC(C)Oc1ccccc1C1CCN(Cc2cccc(C(=O)N3CCc4ccc(NCc5ccccc5F)cc43)c2)CC1

1.1
0.3
1.4

* * *

For each of the molecules below, state its pKi.
# system.under.test: α1a-AR (Homo sapiens)
# Construct: expressed in transfected cells; host or cells: COS-7
# Sequence (P35348 whole entry): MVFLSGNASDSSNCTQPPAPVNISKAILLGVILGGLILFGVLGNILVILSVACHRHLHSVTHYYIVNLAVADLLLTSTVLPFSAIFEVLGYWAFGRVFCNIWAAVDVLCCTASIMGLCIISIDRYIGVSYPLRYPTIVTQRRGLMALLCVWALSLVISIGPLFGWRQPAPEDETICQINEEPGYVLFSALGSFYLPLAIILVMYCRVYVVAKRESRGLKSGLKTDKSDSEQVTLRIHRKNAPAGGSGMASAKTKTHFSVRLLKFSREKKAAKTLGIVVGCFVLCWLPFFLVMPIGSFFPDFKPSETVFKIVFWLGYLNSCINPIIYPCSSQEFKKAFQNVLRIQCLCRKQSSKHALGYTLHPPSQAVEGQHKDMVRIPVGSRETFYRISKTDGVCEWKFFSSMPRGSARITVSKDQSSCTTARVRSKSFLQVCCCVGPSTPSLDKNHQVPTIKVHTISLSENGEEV
# experimental.protocol: α1-Adrenergic receptor radio-ligand (125I-HEAT) binding assay, α1a subtype
# applied.conditions: COS-7 cell membranes transfected with α1a-AR, 125I-HEAT 50 pM; read-out: Receptor Binding, Ki α1a-AR
Give bare numbers, as −log10 of the molar value.

structure.as.smiles | system.under.test | readout.type | obs.value
CC(C)Oc1ccccc1N1CCN(Cc2cccc(C(=O)N3CCc4cc(NCc5ccc6c(c5)OCO6)ccc43)c2)CC1 | α1a-AR (Homo sapiens) | pKi | 7.78
CCOC(OCC)c1ccc(CNc2ccc3c(c2)CCN3C(=O)c2cccc(CN3CCN(c4ccccc4OC(C)C)CC3)c2)cc1 | α1a-AR (Homo sapiens) | pKi | 7.32
COc1ccccc1CN1CCN(Cc2ccc(C(=O)N3CCc4ccccc43)cc2)CC1 | α1a-AR (Homo sapiens) | pKi | 7.09
COc1ccc(C(=O)Nc2ccc3c(c2)N(C(=O)c2cccc(CN4CCN(c5ccccc5OC(C)C)CC4)c2)CC3)cc1 | α1a-AR (Homo sapiens) | pKi | 8.42
CC(C)Oc1ccccc1N1CCN(Cc2cccc(C(=O)N3CCc4cc(S(=O)(=O)N(C)C)ccc43)c2)CC1 | α1a-AR (Homo sapiens) | pKi | 6.97

For each of the items listed, what is its pKi?
1. COc1ccccc1C1CCN(Cc2ccc(C(=O)N3CCc4cc([N+](=O)[O-])ccc43)cc2)CC1
2. COc1ccccc1C1CCN(Cc2ccc(C(=O)N3CCc4cc(N)ccc43)cc2)CC1
3. CC(C)Oc1ccccc1N1CCN(Cc2cccc(C(=O)N3CCc4ccc(NC(=S)Nc5ccccc5)cc43)c2)CC1

[6.91, 7.31, 7.48]

* * *

# system.under.test: α1b-AR (Homo sapiens, UniProt P35368)
# Construct: expressed in transfected cells; host or cells: COS-7
# Sequence (P35368 1-520): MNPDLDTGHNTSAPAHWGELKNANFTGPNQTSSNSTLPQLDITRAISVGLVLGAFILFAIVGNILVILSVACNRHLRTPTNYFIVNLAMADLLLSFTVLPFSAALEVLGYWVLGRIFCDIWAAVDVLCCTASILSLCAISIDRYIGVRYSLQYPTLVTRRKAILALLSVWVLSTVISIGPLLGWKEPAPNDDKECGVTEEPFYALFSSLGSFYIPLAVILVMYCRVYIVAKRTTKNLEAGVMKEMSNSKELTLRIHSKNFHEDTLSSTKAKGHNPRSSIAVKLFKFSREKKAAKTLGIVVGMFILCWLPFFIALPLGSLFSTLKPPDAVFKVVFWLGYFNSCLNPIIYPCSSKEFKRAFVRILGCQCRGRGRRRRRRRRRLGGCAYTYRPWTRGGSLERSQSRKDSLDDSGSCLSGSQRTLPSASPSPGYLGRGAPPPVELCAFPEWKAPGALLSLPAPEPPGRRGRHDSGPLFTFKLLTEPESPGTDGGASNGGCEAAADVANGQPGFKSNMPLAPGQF
# experimental.protocol: α1-Adrenergic receptor radio-ligand (125I-HEAT) binding assay, α1b subtype
# applied.conditions: COS-7 cell membranes transfected with α1b-AR, 125I-HEAT 50 pM; read-out: Receptor Binding, Ki α1b-AR
Would you mind telling me the reported pKi of each entry?
Give bare numbers, as −log10 of the molar value.

Some solved cases for reference:
structure.as.smiles | system.under.test | pKi
CC(=O)Nc1ccc(S(=O)(=O)Nc2ccc3c(c2)CCN3C(=O)c2cccc(CN3CCN(c4ccccc4OC(C)C)CC3)c2)cc1 | α1b-AR (Homo sapiens, UniProt P35368) | 6.42
COc1ccc(OC)c2c1CC(Nc1ccc3c(c1)N(C(=O)c1cccc(CN4CCN(c5ccccc5OC(C)C)CC4)c1)CC3)C2 | α1b-AR (Homo sapiens, UniProt P35368) | 6.07
CC(C)Oc1ccccc1N1CCN(Cc2cccc(C(=O)N3CCc4ccc(N)cc43)c2)CC1 | α1b-AR (Homo sapiens, UniProt P35368) | 6.84
CC(C)Oc1ccccc1N1CCN(Cc2cccc(C(=O)N3CCc4cc(NCc5ccc6c(c5)OCO6)ccc43)c2)CC1 | α1b-AR (Homo sapiens, UniProt P35368) | 6.42
CC(C)Oc1ccccc1N1CCN(Cc2cccc(C(=O)N3CCc4cc(NS(=O)(=O)c5ccc6ccccc6c5)ccc43)c2)CC1 | α1b-AR (Homo sapiens, UniProt P35368) | 6.49

Okay, here is my list. What is pKi for each of these?
1. COc1ccccc1C1CCN(Cc2ccc(C(=O)N3CCc4ccc(N)cc43)cc2)CC1
2. CCOC(OCC)c1ccc(CNc2ccc3c(c2)N(C(=O)c2cccc(CN4CCN(c5ccccc5OC(C)C)CC4)c2)CC3)cc1
3. CCOC(OCC)c1ccc(CNc2ccc3c(c2)CCN3C(=O)c2ccc(CN3CCC(c4ccccc4OC)CC3)cc2)cc1
4. CC(C)Oc1ccccc1N1CCN(Cc2cccc(C(=O)N3CCc4cc(F)ccc43)c2)CC1

1: 6.33; 2: 5.20; 3: 5.99; 4: 6.54
